measurement protocol: Solubility in distilled water at 37.5 °C (supersaturated, UV/Vis 420 nm)
Assay type: physicochemical
stated conditions: distilled water, water, thermodynamic from solid, after 1 min
measured endpoint: solubility at 1 min (µg/mL)
Expressed in µg/mL, but write only the number.

Qu. solubility at 1 min for COc1cc(/C=C/C(=O)CC(=O)/C=C/c2ccc(O)c(OC)c2)ccc1O [curcumin] ?
Ans. 0.03

###

measurement protocol: Solubility in phosphate buffer pH 6.8 at 37.5 °C (supersaturated, UV/Vis 420 nm)
Assay type: physicochemical
stated conditions: pH 6.8, after 60 min
Protocol: Then, 200 µL aliquots were taken for 1, 5, 10, 30 and 60 min. […] The solubility tests were performed in triplicate.
measured endpoint: solubility at 60 min (µg/mL)
State the answer as a number, implicitly in µg/mL.

Qu. Reported solubility at 60 min, molecule `COc1cc(/C=C/C(=O)CC(=O)/C=C/c2ccc(O)c(OC)c2)ccc1O` : ____
Ans. 3.75

###

measurement protocol: Solubility in phosphate buffer pH 6.8 at 37.5 °C (supersaturated, UV/Vis 420 nm)
Type: physicochemical
stated conditions: pH 6.8, aqueous buffer, thermodynamic from solid, after 1 min
measured endpoint: solubility at 1 min
For clarity, give the value followed by its unit.

Qu. Given COc1cc(/C=C/C(=O)CC(=O)/C=C/c2ccc(O)c(OC)c2)ccc1O [curcumin] , state its recorded solubility at 1 min.
Ans. 1.36 µg/mL
